Target: HDAC5 (Homo sapiens (Human), UniProt Q9UQL6)
Sequence (Q9UQL6 whole entry): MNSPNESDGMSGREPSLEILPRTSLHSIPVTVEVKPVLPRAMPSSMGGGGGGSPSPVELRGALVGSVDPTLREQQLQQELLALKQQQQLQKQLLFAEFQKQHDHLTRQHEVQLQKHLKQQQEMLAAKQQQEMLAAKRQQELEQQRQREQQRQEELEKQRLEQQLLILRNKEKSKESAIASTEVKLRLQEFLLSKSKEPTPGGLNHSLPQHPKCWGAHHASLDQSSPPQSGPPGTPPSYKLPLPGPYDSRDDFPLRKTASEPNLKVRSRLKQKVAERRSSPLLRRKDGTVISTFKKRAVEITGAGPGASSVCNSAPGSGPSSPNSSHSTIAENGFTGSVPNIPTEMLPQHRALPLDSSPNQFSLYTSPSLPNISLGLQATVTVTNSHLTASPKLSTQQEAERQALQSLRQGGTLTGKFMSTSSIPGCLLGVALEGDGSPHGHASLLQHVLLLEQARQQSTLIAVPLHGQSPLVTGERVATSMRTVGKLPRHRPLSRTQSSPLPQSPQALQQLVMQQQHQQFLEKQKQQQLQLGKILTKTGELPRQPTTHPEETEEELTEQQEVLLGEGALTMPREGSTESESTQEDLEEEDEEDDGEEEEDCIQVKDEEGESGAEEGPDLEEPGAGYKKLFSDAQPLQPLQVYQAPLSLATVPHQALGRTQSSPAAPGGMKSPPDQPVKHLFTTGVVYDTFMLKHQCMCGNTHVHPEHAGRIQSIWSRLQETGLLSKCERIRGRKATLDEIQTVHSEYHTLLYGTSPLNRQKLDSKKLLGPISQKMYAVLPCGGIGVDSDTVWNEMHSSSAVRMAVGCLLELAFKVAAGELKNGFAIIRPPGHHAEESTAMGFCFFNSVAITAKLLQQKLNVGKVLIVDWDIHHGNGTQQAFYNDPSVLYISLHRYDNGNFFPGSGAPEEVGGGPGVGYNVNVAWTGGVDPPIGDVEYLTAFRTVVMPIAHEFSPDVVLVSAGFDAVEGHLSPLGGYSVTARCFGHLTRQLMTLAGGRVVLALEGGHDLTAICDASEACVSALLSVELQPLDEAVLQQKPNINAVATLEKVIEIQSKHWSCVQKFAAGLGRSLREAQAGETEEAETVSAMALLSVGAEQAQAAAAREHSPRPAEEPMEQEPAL
Experiment: IC50 assay by Nanosyn (Caliper microfluidics mobility shift detection)
Type: biochemical
Conditions: IC50 measured by Nanosyn
quantityName: IC50

| smilesNotation | tgt | quantityName | result |
| --- | --- | --- | --- |
| CN(Cc1ccc(/C=C/C(=O)NO)cc1)CC12CC3CC(CC(C3)C1)C2 | HDAC5 (Homo sapiens (Human), UniProt Q9UQL6) | IC50 | 0.075 µM |

----------
Target: UniProt O15379
Sequence (O15379 whole entry): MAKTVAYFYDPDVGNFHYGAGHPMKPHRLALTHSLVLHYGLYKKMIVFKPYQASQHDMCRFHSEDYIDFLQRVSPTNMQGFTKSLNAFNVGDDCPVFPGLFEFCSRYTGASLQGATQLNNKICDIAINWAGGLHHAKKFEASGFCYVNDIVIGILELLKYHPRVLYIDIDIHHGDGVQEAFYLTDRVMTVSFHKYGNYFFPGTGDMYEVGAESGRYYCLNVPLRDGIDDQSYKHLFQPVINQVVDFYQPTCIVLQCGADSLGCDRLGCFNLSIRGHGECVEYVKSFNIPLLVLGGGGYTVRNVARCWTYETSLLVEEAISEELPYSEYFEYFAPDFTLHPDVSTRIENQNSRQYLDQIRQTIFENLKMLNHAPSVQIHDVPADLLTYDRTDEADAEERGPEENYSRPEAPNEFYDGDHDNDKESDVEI
Sequence (Q9Y618 395-489 partner): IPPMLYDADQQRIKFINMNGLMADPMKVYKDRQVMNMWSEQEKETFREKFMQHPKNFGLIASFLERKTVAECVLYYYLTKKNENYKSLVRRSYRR
Assay: IC50 assay, BPS Biosciences fluorescence assay
Type: biochemical
Conditions: IC50 measured by BPS

| smilesNotation | IC50 |
| --- | --- |
| CN(Cc1ccc(C(=O)NO)cc1F)CC12CC3CC(CC(C3)C1)C2 | > 1000 nM |

----------
Assay: Hepatocyte stability
Conditions: human, hepatocytes
quantityName: half-life (min)

| smilesNotation | numericValue |
| --- | --- |
| CN(Cc1ccc(C(=O)NO)cc1F)CC12CC3CC(CC(C3)C1)C2 | 20 |

----------
Target: HDAC9 (Homo sapiens (Human), UniProt Q9UKV0)
Test: IC50 values of comparison compounds B-F (Table 1B)
Format: biochemical
Conditions: comparison compound C, source not stated
Sequence (Q9UKV0 whole entry, species assumed): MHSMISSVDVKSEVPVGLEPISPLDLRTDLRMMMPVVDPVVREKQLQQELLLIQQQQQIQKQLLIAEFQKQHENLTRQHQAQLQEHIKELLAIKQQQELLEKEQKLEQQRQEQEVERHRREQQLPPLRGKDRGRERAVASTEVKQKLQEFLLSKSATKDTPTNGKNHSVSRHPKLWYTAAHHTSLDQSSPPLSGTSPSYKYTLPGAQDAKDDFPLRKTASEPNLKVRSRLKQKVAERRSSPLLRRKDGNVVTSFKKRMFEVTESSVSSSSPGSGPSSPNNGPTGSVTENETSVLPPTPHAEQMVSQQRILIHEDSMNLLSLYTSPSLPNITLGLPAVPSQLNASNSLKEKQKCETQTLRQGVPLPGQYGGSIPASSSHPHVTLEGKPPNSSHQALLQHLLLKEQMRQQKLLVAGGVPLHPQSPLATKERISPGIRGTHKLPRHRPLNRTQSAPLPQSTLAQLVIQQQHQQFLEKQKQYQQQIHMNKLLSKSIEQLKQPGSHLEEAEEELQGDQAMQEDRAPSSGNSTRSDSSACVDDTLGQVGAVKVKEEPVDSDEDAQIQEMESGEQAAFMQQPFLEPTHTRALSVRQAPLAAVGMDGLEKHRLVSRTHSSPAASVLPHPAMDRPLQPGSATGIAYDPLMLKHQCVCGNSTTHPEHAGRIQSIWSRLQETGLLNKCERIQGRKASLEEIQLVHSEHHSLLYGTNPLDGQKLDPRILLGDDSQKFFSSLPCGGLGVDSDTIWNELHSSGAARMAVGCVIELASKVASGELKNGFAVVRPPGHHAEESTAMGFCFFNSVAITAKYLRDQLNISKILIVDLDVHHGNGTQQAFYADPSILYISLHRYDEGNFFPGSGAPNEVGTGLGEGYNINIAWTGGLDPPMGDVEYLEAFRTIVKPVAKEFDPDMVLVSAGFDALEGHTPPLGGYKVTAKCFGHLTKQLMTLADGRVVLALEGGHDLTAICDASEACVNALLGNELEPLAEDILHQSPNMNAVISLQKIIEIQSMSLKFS
pIC50: −log10 of the molar value.

| smilesNotation | tgt | pIC50 |
| --- | --- | --- |
| CN(c1ncc(C(=O)NO)cn1)C12CC3CC(CC(C3)C1)C2 | HDAC9 (Homo sapiens (Human), UniProt Q9UKV0) | 7.28 |

----------
Test: in vitro
Conditions: mouse, microsomes

| compound | half-life |
| --- | --- |
| CN(Cc1ccc(C(=O)NO)cc1F)CC12CC3CC(CC(C3)C1)C2 [Example 1] | < 10 min |

----------
Target: HDAC9 (Homo sapiens (Human))
Test: IC50 assay by Nanosyn (Caliper microfluidics mobility shift detection)
Assay type: biochemical
Conditions: IC50 measured by Nanosyn
Sequence (Q9UKV0 whole entry): as the sequence (Q9UKV0 whole entry, species assumed) above
pIC50: −log10 of the molar value.
quantityName: pIC50

| compound | result |
| --- | --- |
| CN(Cc1ccc(/C=C/C(=O)NO)cc1)CC12CC3CC(CC(C3)C1)C2 [Martinostat, martinostat] | < 6.00 |

----------
Biological target: UniProtKB Q9UBN7
Experiment: IC50 assay by Nanosyn (Caliper microfluidics mobility shift detection)
Assay type: biochemical
Conditions: Nanosyn (Table 1A)

| molecule | IC50 |
| --- | --- |
| CCC(N(C)Cc1ccc(C(=O)NO)cc1)C12CC3CC(CC(C3)C1)C2 (stereo not drawn) | 121 nM |
| O=C(NO)c1ccc(CNCC23CC4CC(CC(C4)C2)C3)c(C(F)(F)F)c1 | 1020 nM |
| CC(CC12CC3CC(CC(C3)C1)C2)NCc1ccc(C(=O)NO)cc1 (stereo not drawn) | 323 nM |
| O=C(NO)c1ccc(CNCC23CC4CC(CC(C4)C2)C3)c(Br)c1 | 59.9 nM |
| O=C(NO)c1ccc(CNCC2CCCCC2)cc1 | 84 nM |
| CN(Cc1ccc(C(=O)NO)cc1)CC12CC3CC(CC(C3)C1)C2 | 81 nM |
| CCC(NCc1ccc(C(=O)NO)cc1)C12CC3CC(CC(C3)C1)C2 (stereo not drawn) | 213 nM |
| O=C(NO)c1ccc(CNCC23CC4CC(CC(C4)C2)C3)nc1 | 26.7 nM |
| O=C(NO)c1ccc(CNCC23CC4CC(CC(C4)C2)C3)c(Cl)c1 | 74.8 nM |
| O=C(NO)c1ccc(CNCC23CC4CC(CC(C4)C2)C3)cc1 | 35 nM |
| CCCCCN(Cc1ccc(C(=O)NO)cc1)CC1CCC2CC1C2(C)C (stereo not drawn) | 1190 nM |
| O=C(NO)c1ccc(CNCC23CC4CC(CC(C4)C2)C3)c(F)c1 | 12 nM |

----------
This section presents compounds with their documented IC50 values.
Target: HDAC2 (Homo sapiens (Human), UniProt Q92769)
Sequence (Q92769 whole entry): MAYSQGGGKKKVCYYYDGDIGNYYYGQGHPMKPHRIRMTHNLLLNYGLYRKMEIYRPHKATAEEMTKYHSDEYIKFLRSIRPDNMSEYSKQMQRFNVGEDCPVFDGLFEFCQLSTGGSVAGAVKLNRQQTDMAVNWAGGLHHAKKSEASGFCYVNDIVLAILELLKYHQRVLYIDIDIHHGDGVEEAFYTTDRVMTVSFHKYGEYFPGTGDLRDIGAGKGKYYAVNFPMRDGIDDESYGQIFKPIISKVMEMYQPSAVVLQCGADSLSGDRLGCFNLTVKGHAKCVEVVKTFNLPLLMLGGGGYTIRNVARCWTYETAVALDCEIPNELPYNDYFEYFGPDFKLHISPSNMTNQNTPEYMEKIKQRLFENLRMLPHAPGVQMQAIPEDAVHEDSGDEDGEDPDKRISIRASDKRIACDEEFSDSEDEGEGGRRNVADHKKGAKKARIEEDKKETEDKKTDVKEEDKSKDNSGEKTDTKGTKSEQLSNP
Assay: IC50 assay by Nanosyn (Caliper microfluidics mobility shift detection)
Assay type: biochemical
Conditions: IC50 measured by Nanosyn

| compound | reportedRelation | IC50 [nM] |
| --- | --- | --- |
| CN(Cc1ccc(/C=C/C(=O)NO)cc1)CC12CC3CC(CC(C3)C1)C2 [Martinostat, martinostat] | = | 4 |
| CN(Cc1ccc(C(=O)NO)cc1F)CC12CC3CC(CC(C3)C1)C2 [Example 1] | > | 1000 |

----------
Target: HDAC2 (Homo sapiens (Human), UniProt Q92769)
Experiment: IC50 values of comparison compounds B-F (Table 1B)
Format: biochemical
Settings: comparison compound C, source not stated
Excerpt: [drawing 62] (see e.g., WO 2015/058106; Fluorescent-intensity-based enzymatic assay, multiple runs; duplicates);
pIC50: −log10 of the molar value.

| smilesNotation | pIC50 |
| --- | --- |
| CN(c1ncc(C(=O)NO)cn1)C12CC3CC(CC(C3)C1)C2 | 7.19 |

----------
Molecular target: HDAC5 (Homo sapiens (Human))
Assay: IC50 values of comparison compounds B-F (Table 1B)
Assay type: biochemical
Details: comparison compound C, source not stated

| smilesNotation | tgt | endpointUnit | IC50 |
| --- | --- | --- | --- |
| CN(c1ncc(C(=O)NO)cn1)C12CC3CC(CC(C3)C1)C2 | HDAC5 (Homo sapiens (Human)) | nM | 121 |

----------
Target: HDAC11 (Homo sapiens (Human))
Sequence (Q96DB2 whole entry): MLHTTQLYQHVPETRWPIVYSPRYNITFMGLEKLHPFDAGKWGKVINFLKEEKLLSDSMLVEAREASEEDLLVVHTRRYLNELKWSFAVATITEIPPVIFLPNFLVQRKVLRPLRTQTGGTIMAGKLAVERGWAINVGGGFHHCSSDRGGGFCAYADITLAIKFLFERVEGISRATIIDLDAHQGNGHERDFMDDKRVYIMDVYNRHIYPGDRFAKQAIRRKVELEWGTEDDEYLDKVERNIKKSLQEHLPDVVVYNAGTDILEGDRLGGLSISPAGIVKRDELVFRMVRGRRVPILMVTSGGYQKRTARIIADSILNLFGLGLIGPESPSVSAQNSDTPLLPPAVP
Assay: IC50 assay by Nanosyn (Caliper microfluidics mobility shift detection)
Assay type: biochemical
Conditions: IC50 measured by Nanosyn
pIC50: −log10 of the molar value.
quantityName: pIC50

| smilesNotation | quantityName | result |
| --- | --- | --- |
| CN(Cc1ccc(/C=C/C(=O)NO)cc1)CC12CC3CC(CC(C3)C1)C2 | pIC50 | < 6.00 |

----------
Molecular target: HDAC6 (Homo sapiens (Human), UniProt Q9UBN7)
Sequence (Q9UBN7 whole entry): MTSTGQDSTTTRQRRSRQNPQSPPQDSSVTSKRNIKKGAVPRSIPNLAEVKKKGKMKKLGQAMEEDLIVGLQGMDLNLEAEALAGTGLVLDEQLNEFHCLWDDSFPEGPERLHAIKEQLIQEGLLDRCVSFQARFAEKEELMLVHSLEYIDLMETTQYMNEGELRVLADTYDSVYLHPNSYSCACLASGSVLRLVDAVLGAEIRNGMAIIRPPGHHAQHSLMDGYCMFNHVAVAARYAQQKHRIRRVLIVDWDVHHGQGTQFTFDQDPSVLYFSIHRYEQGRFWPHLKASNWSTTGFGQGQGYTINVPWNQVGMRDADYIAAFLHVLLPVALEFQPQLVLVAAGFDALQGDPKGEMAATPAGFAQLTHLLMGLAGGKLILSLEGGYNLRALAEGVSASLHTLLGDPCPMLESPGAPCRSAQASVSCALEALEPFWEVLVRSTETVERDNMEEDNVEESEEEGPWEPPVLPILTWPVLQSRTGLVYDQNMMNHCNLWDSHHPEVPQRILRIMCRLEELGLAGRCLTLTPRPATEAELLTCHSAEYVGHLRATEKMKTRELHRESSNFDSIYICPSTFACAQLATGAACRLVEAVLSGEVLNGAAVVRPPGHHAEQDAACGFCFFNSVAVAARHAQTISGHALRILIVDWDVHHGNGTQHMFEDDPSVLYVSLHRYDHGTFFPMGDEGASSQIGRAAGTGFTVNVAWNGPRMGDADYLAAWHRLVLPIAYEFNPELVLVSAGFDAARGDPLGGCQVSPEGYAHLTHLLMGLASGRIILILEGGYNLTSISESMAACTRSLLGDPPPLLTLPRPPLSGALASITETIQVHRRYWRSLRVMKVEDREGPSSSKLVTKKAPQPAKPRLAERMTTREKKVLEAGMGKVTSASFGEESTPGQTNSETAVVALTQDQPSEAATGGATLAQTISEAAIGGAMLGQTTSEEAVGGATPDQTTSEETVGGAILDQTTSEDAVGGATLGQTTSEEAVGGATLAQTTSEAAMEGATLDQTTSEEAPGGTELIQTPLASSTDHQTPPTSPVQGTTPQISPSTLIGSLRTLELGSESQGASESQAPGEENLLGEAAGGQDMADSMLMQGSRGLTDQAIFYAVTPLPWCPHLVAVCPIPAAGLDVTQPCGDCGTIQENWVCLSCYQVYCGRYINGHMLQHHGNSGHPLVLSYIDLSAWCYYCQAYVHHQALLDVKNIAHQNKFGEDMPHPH
Test: IC50 assay, BPS Biosciences fluorescence assay
Assay type: biochemical
pIC50: −log10 of the molar value.

| smilesNotation | tgt | pIC50 |
| --- | --- | --- |
| CN(Cc1ccc(/C=C/C(=O)NO)cc1)CC12CC3CC(CC(C3)C1)C2 | HDAC6 (Homo sapiens (Human), UniProt Q9UBN7) | 7.32 |

----------
Target: HDAC2 (Homo sapiens (Human))
Assay: IC50 assay, BPS Biosciences fluorescence assay
Format: biochemical
Conditions: BPS Biosciences fluorescence assay
quantityName: IC50 (nM)

| smilesNotation | quantityName | endpointUnit | numericValue |
| --- | --- | --- | --- |
| CN(Cc1ccc(/C=C/C(=O)NO)cc1)CC12CC3CC(CC(C3)C1)C2 | IC50 | nM | 22 |

----------
Target: HDAC11 (Homo sapiens (Human))
Assay: IC50 assay, BPS Biosciences fluorescence assay
Assay type: biochemical
Conditions: BPS Biosciences fluorescence assay
pIC50: −log10 of the molar value.

| smilesNotation | pIC50 |
| --- | --- |
| CN(Cc1ccc(/C=C/C(=O)NO)cc1)CC12CC3CC(CC(C3)C1)C2 | < 6.00 |

----------
Target: HDAC10 (Homo sapiens (Human), UniProt Q969S8)
Assay: IC50 values of comparison compounds B-F (Table 1B)
Assay type: biochemical
Settings: comparison compound C, source not stated

| molecule | IC50, nM |
| --- | --- |
| CN(c1ncc(C(=O)NO)cn1)C12CC3CC(CC(C3)C1)C2 [C] | 25 |
